Listed below: CD73 surface reduction [%] on Colo201 cells, 24 h, flow cytometry values for each entry.
Biological target: T1, cell-bound CD73 (human, UniProt P21589 27-549)
T1 sequence (looked up): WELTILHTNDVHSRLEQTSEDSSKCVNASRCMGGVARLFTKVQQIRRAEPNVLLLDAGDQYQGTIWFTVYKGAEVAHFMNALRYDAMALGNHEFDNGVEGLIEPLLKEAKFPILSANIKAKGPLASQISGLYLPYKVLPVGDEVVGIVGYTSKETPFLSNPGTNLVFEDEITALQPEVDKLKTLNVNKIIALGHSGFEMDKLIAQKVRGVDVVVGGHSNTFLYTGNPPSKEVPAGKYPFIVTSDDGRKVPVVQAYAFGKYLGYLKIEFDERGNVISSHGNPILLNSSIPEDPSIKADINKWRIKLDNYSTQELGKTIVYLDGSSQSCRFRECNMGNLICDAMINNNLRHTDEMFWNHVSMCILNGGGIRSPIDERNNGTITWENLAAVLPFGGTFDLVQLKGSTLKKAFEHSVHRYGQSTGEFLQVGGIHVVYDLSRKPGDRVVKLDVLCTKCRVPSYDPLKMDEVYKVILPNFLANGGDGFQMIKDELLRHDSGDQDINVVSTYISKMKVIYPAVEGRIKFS
Assay: cell-based or functional assay
The answer is to be given in %; state only the numeric part.

Answered examples (2):
C2 (antibody, human IgG1, kappa, L234A L235A, V domains shown, Humanized monoclonal antibody; also called anti-CD73 antibody C2) VH: QVQLVQSGAEVKKPGDSVKVSCKASGYTFTTYWMHWVRQAPGQGLEWMGAIYPGLSDTTYSQKFKGKVTMTRDTSTSTVYMKLSSLRSEDTAVYYCARLLDYAMDYWGQGTLVTVSS VL: DIQMTQSPSSLSASVGDRVTITCRASQDIRSYLNWHQQKPGKAPKLLIWYTSRLHSGVPSRFSGSGSGTDYTLTISSLEPEDFATYFCQQGETLPWTFGQGTKLEIKR	15
C1 (antibody, human IgG1, kappa, L234A L235A, V domains shown, Humanized monoclonal antibody; also called anti-CD73 antibody C1) VH: QVQLVQSGAEVKKPGDSVKVSCKASGYTFTTYWMHWVRQAPGQGLEWMGAIYPGFSDTTYSQKFKGKVTMTRDTSTSTVYMKLSSLRSEDTAVYYCARLLDYAMDYWGQGTLVTVSS VL: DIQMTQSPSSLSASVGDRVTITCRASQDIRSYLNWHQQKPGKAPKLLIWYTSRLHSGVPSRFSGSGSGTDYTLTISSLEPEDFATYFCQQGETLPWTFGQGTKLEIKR	20

Now for another entry.
// sample C3 (antibody, human IgG1, kappa, L234A L235A, V domains shown, Humanized monoclonal antibody; also called anti-CD73 antibody C3) VH: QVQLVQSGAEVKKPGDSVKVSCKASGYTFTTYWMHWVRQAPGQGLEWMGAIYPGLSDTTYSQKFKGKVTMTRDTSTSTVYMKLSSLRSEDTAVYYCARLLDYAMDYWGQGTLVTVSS VL: DIQMTQSPSSLSASVGDRVTITCRASQDIRSYLNWHQQKPGKAPKLLIWYTSRLHSGVPSRFSGSGSGTDYTLTISSLQPEDFATYFCQQGETLPWTFGQGTKLEIKR , its CD73 surface reduction [%] on Colo201 cells, 24 h, flow cytometry was 16
